Target: Phosphatidylinositol 4,5-bisphosphate 3-kinase catalytic subunit beta isoform (Homo sapiens)
Sequence (P42338 whole entry, canonical isoform): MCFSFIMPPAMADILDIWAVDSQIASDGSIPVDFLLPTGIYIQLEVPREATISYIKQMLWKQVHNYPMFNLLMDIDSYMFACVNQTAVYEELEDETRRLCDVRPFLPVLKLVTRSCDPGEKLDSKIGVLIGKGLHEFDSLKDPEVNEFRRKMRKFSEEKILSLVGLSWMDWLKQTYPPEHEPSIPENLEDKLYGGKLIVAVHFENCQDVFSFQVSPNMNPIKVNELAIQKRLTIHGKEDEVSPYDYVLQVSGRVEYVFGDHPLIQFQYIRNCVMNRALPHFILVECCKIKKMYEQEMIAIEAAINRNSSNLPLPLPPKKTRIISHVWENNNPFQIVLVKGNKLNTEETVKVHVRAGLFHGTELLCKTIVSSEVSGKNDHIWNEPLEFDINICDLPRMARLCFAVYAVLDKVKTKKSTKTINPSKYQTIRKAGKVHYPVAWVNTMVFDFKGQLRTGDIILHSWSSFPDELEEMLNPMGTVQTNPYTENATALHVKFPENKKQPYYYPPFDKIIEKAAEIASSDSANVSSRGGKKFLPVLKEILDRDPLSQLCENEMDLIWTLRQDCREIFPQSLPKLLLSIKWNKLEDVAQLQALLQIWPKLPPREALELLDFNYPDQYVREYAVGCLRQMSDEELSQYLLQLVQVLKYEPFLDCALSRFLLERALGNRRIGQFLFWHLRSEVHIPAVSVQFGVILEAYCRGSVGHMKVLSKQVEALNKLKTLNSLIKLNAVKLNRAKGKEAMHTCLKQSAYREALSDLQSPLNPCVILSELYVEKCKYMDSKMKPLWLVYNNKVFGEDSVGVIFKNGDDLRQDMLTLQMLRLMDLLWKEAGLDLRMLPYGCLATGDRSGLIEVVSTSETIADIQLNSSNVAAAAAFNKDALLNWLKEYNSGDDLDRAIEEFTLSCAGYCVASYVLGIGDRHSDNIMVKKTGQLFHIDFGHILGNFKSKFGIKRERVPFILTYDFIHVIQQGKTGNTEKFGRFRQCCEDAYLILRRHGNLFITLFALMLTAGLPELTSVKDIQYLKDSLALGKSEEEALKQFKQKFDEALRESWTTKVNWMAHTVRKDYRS
Assay: Inhibition of PI3Kbeta (unknown origin)
pIC50: −log10 of the molar value.
measure: pIC50

# cpd smiles, pIC50
rows = [
    ("COCCNC(=O)Nc1ccc(-c2cnc(Cl)c(NS(=O)(=O)c3ccccc3)c2)cn1", 6.53),
    ("CCNC(=O)Nc1ccc(-c2cnc(Cl)c(NS(=O)(=O)c3ccccc3)c2)cn1", 6.63),
]

###

System: KG-1
Test: Antiproliferative activity against human KG-1 cells assessed as inhibition of cell growth
Type: functional, cell-based
measure: pIC50
Remember, pIC50 is on a log scale: it is -log10 of the molar concentration.

Known pIC50 results, listed for orientation:
# cpd smiles, pIC50
data = [
    ("CC[C@H](Nc1ncnc2[nH]cnc12)c1nc2cccc(F)c2c(=O)n1-c1ccccc1", 4.82),
    ("COCCNC(=O)Nc1ccc(-c2cnc(Cl)c(NS(=O)(=O)c3ccccc3)c2)cn1", 4.72),
]

Given Oc1cccc(-c2nc(N3CCOCC3)c3oc4ncccc4c3n2)c1 , respond with its pIC50.
7.06

###

Biological target: Phosphatidylinositol 4,5-bisphosphate 3-kinase catalytic subunit delta isoform (Homo sapiens, UniProt O00329)
Sequence (O00329 whole entry, canonical isoform): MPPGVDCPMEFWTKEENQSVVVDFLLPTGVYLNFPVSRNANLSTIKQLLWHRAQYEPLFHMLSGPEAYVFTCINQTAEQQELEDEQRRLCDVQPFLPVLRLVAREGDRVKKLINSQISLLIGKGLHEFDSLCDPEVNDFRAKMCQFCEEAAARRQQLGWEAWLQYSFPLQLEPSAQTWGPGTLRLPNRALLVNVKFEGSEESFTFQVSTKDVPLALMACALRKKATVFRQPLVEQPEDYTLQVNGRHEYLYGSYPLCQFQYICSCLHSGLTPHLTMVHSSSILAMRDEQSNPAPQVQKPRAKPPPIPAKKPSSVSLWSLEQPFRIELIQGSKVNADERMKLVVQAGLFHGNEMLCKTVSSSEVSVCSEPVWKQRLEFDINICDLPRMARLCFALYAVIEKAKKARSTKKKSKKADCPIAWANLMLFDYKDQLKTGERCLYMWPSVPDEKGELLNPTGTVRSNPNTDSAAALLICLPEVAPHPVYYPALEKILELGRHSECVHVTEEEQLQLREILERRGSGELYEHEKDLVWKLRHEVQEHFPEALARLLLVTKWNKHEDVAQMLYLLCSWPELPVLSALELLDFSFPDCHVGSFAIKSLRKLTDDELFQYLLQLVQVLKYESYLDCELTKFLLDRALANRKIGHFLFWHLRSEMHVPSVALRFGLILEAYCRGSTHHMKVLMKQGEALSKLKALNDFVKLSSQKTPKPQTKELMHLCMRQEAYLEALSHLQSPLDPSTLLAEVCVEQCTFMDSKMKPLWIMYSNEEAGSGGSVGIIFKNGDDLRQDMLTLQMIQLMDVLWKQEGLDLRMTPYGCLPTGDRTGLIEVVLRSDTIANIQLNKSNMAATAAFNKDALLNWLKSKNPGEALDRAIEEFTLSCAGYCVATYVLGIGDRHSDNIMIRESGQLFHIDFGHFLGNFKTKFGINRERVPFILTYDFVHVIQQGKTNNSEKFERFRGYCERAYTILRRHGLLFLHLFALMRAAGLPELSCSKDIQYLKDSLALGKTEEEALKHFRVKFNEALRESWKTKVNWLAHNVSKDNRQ
Experiment: Inhibition of PI3Kdelta (unknown origin) by ADP Glo luminescent assay
measure: IC50 (µM)

# cpd smiles, measure, value reported
rows = [
    ("CC(C)(C)c1ccc(S(=O)(=O)Nc2cc(-c3ccc(N)nc3)cnc2Cl)cc1", "IC50", 0.031),
]

[1] Nc1ccc(-c2cnc(Cl)c(C(F)(F)F)c2)cn1
[2] CCCC(=O)Nc1ccc(-c2cnc(Cl)c(NS(=O)(=O)c3ccccc3)c2)cn1
Short answer wanted: higher IC50, 1 or 2 ? Give the chosen item's label as your response.
1
(1: 46.6 µM, 2: 0.046 µM)

###

Target: Phosphatidylinositol 4,5-bisphosphate 3-kinase catalytic subunit delta isoform (Homo sapiens, UniProt O00329)
Assay: Inhibition of PI3Kdelta (unknown origin) by ADP Glo luminescent assay
measure: IC50

# cpd smiles, value reported
rows = [
    ("COc1ncc(-c2ccc(N)nc2)cc1N", "> 50 µM"),
    ("N#Cc1cc(-c2ccc(N)nc2)cnc1Cl", "> 50 µM"),
]

# input for lookup
Answer with reported IC50 of Nc1cncc(-c2ccc(N)nc2)c1
> 50 µM
